These entries and their values trace back to patent US20140148492A1.

Measurement target: human CRTH2 receptor (Homo sapiens, UniProt Q9Y5Y4)
Construct: host or cells: CHO-K1 (CHO-K1-hCRTH2 cells), membranes prepared in house
Sequence (Q9Y5Y4 1-395): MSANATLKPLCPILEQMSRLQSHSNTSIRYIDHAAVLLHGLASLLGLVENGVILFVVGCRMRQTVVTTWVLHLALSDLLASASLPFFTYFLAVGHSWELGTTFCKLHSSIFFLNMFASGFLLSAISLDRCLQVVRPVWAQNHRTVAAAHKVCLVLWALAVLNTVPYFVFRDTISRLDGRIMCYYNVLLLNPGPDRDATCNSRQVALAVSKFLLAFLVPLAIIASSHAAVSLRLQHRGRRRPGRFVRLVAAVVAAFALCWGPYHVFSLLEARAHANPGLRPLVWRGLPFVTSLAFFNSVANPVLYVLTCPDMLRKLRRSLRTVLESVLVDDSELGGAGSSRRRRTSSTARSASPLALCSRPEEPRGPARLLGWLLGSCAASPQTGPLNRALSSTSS
Protocol text: CRTH2 receptor radioligand binding assay (SPA, [3H]-PGD2)
Condition: displacement of [3H]-PGD2 (1 nM) from CHO-K1-hCRTH2 cell membranes, SPA format, 3 h room temperature
pKi: −log10 of the molar value.
Experimental endpoint: pKi

# Smiles str, Experimental endpoint, Value reported
measured = [
    ("Cc1nn(Cc2ccc(NC(=O)c3cc4ccccc4o3)cc2)c(C)c1CC(=O)O", "pKi", 9.10),
    ("CCc1c(C(=O)Nc2ccc(Cn3nc(C)c(CC(=O)O)c3C)cc2)oc2ccc(F)cc12", "pKi", 8.92),
]
